meta.source: ChEMBL document CHEMBL3616469

ASSAY PROTOCOL: Antioxidant activity assessed as inhibition of AAPH-induced lipid peroxidation after 3 hrs by TBA-MDA test
Type: physicochemical
Listed next: entries and their corresponding IC50.
Answer format: numeric, µg/mL implied, no suffix.

Using the record for COc1ccccc1/C=c1\sc2nc3cc(C(=O)c4ccccc4)ccc3n2c1=O , report its IC50.
74.11

New cases:
Using the record for O=C(c1ccccc1)c1ccc2c(c1)nc1s/c(=C\c3ccccc3F)c(=O)n12 , report its IC50.
86.97

Using the record for Cc1ccc2c(c1)n(CCCc1ccccc1)c(=N)n2CCCc1ccccc1 , report its IC50.
144.88

Using the record for CCOC(=O)Cn1c(=N)n(CC(=O)OCC)c2cc(C(=O)c3ccccc3)ccc21 , report its IC50.
141.89

Using the record for CCOC(=O)Cn1c(=N)n(CC(=O)OCC)c2cc(C)ccc21 , report its IC50.
176.58

###

ASSAY PROTOCOL: Antioxidant activity assessed as inhibition of AAPH-induced lipid peroxidation after 3 hrs by TBA-MDA test
Format: physicochemical
Listed next: entries and their corresponding IC50.
Answer format: numeric, µg/mL implied, no suffix.

Using the record for O=C(c1ccccc1)c1ccc2c(c1)nc1s/c(=C\c3ccc4c(c3)OCO4)c(=O)n12 , report its IC50.
85.51

// switching to the query compound
Using the record for Cc1c(C)c2c(c(C)c1O)CCC(C)(C(=O)O)O2 (stereo not drawn) , report its IC50.
7.74

###

Listed next: entries and their corresponding inhibition (INH).
ASSAY PROTOCOL: Antioxidant activity assessed as inhibition of AAPH-induced lipid peroxidation at 200 ug/ml after 3 hrs by TBA-MDA test
Format: physicochemical
# output: numeric value plus its unit

Here is how some compounds turned out for inhibition (INH).
Using the record for O=C1O[C@H]([C@@H](O)CO)C(O)=C1O , report its inhibition (INH).
99.9%

Using the record for CCOC(=O)Cn1c(=N)n(CC(=O)OCC)c2cc(C(=O)c3ccccc3)ccc21 , report its inhibition (INH).
74.04%

// switching to the query compound
Using the record for O=c1c(O)c(-c2ccc(O)c(O)c2)oc2cc(O)cc(O)c12 , report its inhibition (INH).
91.12%

###

ASSAY PROTOCOL: Antioxidant activity assessed as inhibition of AAPH-induced lipid peroxidation after 3 hrs by TBA-MDA test
Assay type: physicochemical
METRIC: IC50 (µg/mL)
Answer format: numeric, µg/mL implied, no suffix.

Here is how some compounds turned out for IC50.
Using the record for O=C(c1ccccc1)c1ccc2c(c1)nc1s/c(=C\c3ccc(F)cc3)c(=O)n12 , report its IC50.
53.7

Using the record for O=c1c(O)c(-c2ccc(O)c(O)c2)oc2cc(O)cc(O)c12 , report its IC50.
10.47

Using the record for O=C1O[C@H]([C@@H](O)CO)C(O)=C1O , report its IC50.
9.12

// switching to the query compound
Using the record for O=C(O)/C=C/c1ccc(O)c(O)c1 , report its IC50.
3.79

###

ASSAY PROTOCOL: Antioxidant activity assessed as inhibition of AAPH-induced lipid peroxidation at 200 ug/ml after 3 hrs by TBA-MDA test
Assay type: physicochemical
Categories are assigned from the measured inhibition (INH) using these intervals: bottom end: < 60%; midrange: ≥ 60% and < 80%; top end: ≥ 80%

Take a look at these entries with their results.
Returns: class label. Input: Cc1ccc2c(c1)n(CCCc1ccccc1)c(=N)n2CCCc1ccccc1
midrange

Returns: class label. Input: O=C(O)/C=C/c1ccc(O)c(O)c1
top end

Returns: class label. Input: Cc1c(C)c2c(c(C)c1O)CCC(C)(C(=O)O)O2 (stereo not given)
top end

Returns: class label. Input: N=c1n(CC(=O)c2ccccc2)c2ccc([N+](=O)[O-])cc2n1CC(=O)c1ccccc1
bottom end

Returns: class label. Input: CCOC(=O)Cn1c(=N)n(CC(=O)OCC)c2cc(C)ccc21
bottom end

New cases:
Returns: class label. Input: O=C(c1ccccc1)c1ccc2c(c1)nc1s/c(=C\c3ccccc3F)c(=O)n12
midrange

Returns: class label. Input: Cc1ccc2c(c1)n(CC(=O)c1ccccc1)c(=N)n2CC(=O)c1ccccc1
bottom end

Returns: class label. Input: O=C(c1ccccc1)c1ccc2c(c1)nc1s/c(=C\c3ccc(F)cc3)c(=O)n12
top end
